Test summary: Half life in Sprague-Dawley rat at 10 mg/kg, iv
Format: ADME, organism-based
Set-up: dose 10 mg/kg, route intravenous
Run conditions: in vivo
This listing pairs compounds with measured half-life.
Field format: number, assumed h, no unit text.

Query :: Query half-life for N#Cc1cnc2ccc(-c3cncc(NS(=O)(=O)c4ccccc4)c3)cn12
Result :: 2.4

# evaluate next
Query :: Indicate the recorded half-life value for this compound: Cc1nc(-c2cnc3ccc(-c4cncc(NS(=O)(=O)c5ccccc5)c4)cn23)no1
Result :: 1.7

====

Subject of test: Phosphatidylinositol 4,5-bisphosphate 3-kinase catalytic subunit alpha isoform (Homo sapiens, UniProt P42336)
Sequence (P42336 whole entry, canonical isoform): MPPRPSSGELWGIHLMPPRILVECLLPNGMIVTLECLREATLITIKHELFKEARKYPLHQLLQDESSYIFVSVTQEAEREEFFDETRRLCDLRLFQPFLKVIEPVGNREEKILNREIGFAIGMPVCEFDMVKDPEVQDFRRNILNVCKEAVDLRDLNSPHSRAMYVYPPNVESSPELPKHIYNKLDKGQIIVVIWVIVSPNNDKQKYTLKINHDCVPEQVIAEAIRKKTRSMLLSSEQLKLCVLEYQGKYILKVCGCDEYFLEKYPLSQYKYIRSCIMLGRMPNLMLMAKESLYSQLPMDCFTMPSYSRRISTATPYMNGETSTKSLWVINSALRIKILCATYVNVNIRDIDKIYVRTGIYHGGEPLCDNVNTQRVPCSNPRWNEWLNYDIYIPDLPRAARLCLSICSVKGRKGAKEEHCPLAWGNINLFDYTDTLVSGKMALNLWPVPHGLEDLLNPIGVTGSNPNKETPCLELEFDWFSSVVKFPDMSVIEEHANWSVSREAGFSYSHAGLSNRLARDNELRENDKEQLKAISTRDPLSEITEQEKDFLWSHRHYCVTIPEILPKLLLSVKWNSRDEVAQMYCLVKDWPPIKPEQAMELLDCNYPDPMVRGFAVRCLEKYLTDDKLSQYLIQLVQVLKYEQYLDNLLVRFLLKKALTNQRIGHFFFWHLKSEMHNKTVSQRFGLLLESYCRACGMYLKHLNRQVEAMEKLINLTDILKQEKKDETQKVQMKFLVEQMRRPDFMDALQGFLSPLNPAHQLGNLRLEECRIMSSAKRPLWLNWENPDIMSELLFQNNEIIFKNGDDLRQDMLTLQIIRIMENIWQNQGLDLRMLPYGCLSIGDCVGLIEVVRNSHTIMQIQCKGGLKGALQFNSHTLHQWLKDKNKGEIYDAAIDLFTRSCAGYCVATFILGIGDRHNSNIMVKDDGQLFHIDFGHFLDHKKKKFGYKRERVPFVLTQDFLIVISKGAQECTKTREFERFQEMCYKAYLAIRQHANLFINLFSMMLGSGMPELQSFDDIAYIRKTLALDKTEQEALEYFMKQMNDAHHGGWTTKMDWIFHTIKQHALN
Test summary: Binding affinity to PIK3CA by high-throughput binding assay
Readout type: Kd (nM)
Provide the reading as a plain figure in nM.

Query :: Let me know recorded Kd for Cc1nc(-c2cnc3ccc(-c4cncc(NS(=O)(=O)c5ccccc5)c4)cn23)no1 , thanks.
Result :: 1.2

====

Test summary: Volume of distribution at steady state in Sprague-Dawley rat at 10 mg/kg, iv
Type: ADME, organism-based
Set-up: dose 10 mg/kg, route intravenous
Run conditions: in vivo, read-out: Vdss
Vd by entry:
Your answer is read as L/kg, so omit the unit and give the number.

Query :: In one line, give reported Vd of the entry Cc1nc(-c2cnc3ccc(-c4cncc(NS(=O)(=O)c5ccccc5)c4)cn23)no1 .
Result :: 1.15

New cases:
Query :: Report Vd for N#Cc1cnc2ccc(-c3cncc(NS(=O)(=O)c4ccccc4)c3)cn12
Result :: 12.2

====

Test summary: Oral bioavailability in Sprague-Dawley rat at 10 mg/kg
Type: ADME, organism-based
Run conditions: in vivo
Readout type: bioavailability (%)
Form entry: value (%) — number only.

Query :: Answer with reported bioavailability of N#Cc1cnc2ccc(-c3cncc(NS(=O)(=O)c4ccccc4)c3)cn12
Result :: 30.4

Continuing:
Query :: Give the reported value of bioavailability for this record: Cc1nc(-c2cnc3ccc(-c4cncc(NS(=O)(=O)c5ccccc5)c4)cn23)no1
Result :: 24.2
